assayTarget: human mGluR5a receptor (Homo sapiens, UniProt P41594)
Construct: cDNA subcloned into pcDNA3.1(-)
Sequence (P41594 21-1180 isoform P41594-2 limits assumed): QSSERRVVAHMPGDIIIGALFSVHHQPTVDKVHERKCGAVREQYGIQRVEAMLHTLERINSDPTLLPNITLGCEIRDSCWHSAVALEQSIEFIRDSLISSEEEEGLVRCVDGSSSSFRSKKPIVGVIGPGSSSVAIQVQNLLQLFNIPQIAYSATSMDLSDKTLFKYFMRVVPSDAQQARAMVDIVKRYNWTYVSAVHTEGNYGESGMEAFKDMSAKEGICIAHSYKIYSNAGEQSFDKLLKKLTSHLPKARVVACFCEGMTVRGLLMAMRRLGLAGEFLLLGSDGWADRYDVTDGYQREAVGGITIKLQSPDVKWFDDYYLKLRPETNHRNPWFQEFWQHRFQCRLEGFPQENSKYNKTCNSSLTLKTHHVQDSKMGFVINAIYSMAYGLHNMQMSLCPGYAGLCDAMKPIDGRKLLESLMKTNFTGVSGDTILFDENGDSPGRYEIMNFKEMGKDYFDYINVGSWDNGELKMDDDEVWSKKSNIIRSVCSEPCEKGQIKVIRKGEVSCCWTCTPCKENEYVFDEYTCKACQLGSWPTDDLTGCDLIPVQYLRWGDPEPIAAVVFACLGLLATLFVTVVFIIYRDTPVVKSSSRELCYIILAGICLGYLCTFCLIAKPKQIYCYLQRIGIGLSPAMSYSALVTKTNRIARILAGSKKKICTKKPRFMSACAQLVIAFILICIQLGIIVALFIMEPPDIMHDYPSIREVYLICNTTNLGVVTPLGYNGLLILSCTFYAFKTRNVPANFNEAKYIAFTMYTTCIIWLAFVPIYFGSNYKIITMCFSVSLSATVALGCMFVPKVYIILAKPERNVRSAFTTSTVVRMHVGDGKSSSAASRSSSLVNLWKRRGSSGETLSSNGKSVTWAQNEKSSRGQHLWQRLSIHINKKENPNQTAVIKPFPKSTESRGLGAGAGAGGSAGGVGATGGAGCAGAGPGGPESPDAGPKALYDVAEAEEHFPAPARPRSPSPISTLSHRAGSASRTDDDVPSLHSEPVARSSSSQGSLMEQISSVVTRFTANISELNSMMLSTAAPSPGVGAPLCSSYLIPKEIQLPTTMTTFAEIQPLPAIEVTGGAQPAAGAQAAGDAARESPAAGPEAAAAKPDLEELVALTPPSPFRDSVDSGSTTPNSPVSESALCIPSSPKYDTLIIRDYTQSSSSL
protocol: Cell-based functional Ca2+ mobilization assay (FDSS), potentiation of glutamate EC20 response
experimentalContext: HEK cells transfected with human mGluR5 (H10H or H12H); in presence of EC20 glutamate; read-out: EC50
pEC50: −log10 of the molar value.
measure: pEC50

Cc1cncc(N2CCn3nc(COc4ccccc4)cc3C2=O)n1 ... 6.51
Cc1cnccc1OCc1cc2n(n1)CCN(c1ccc(F)cc1)C2=O ... 5.31
CC1CN(c2cccc(F)c2)C(=O)c2cc(COc3ccc(F)cc3)nn21 (racemic) ... 6.77

a = COc1ccc(C)c(N2CCn3nc(COc4ccccc4)cc3C2=O)n1
b = CN(C)c1ccc(F)c(N2CCn3nc(COc4ccccn4)cc3C2=O)n1
Problem: Lower value for measured pEC50? Options: a , b Give the label under which the chosen entry appears.
Solution: b

A = CC(C)c1cccc(N2CCn3nc(COc4ccccc4)cc3C2=O)n1
B = Cc1nc(N2CCn3nc(COc4ccccc4)cc3C2=O)ncc1F
C = COc1cnc(N2CCn3nc(COc4ccccc4)cc3C2=O)nc1OC
Problem: Kindly order the items shown according to pEC50, from the highest value down. // respond by listing labels in the order requested
Solution: A, C, B
(A: 7.03, C: 6.46, B: 6.24)

P = Cc1nc2cc(N3CCn4nc(COc5ccccc5)cc4C3=O)ccc2s1
Q = Cc1ccccc1OCc1cc2n(n1)CCN(c1ccc(F)cc1)C2=O
Problem: Which numeric pEC50 is bigger, that of P or that of Q ? Lab log: write the label of the selected item as the result.
Solution: P

###

assayTarget: human mGluR5a receptor (Homo sapiens)
Construct: cDNA subcloned into pcDNA3.1(-)
protocol: Cell-based functional Ca2+ mobilization assay (FDSS), potentiation of glutamate EC20 response
experimentalContext: HEK cells transfected with human mGluR5 (H10H or H12H); in presence of EC20 glutamate; read-out: EC50
pEC50: −log10 of the molar value.
measure: pEC50

Example results:
CC1CN(c2ccc(F)cc2)C(=O)c2cc(COc3ccccc3)nn21 (racemic) [Example 19] ... 7.15
O=C1c2cc(COc3ccccc3)nn2CCN1CC(F)(F)F ... 5.55
CC1CN(c2ccc(F)cn2)C(=O)c2cc(COc3ccc(F)cc3)nn21 (racemic) ... 6.70
CN(C)c1cccnc1N1CCn2nc(COc3ccccc3)cc2C1=O ... 5.92

A = Cc1cc(N2CCn3nc(COc4ccccc4)cc3C2=O)ncn1
B = COCc1ccccc1N1CCn2nc(COc3ccccc3)cc2C1=O
C = COc1cc(N2CCn3nc(COc4ccccc4)cc3C2=O)ncn1
Problem: Ranking field: pEC50; order: falling. To answer, write out the labels according to the requested order.
Solution: C, B, A

A = O=C1c2cc(COc3ccccc3)nn2C(F)CN1c1ccc(F)cc1 (single isomer, unassigned) [Example 273]
B = COc1nccc(N2CCn3nc(COc4ccc(F)cc4)cc3C2=O)n1
C = O=C1c2cc(COc3ncccc3F)nn2CCN1c1ccc(F)cc1
D = CN(C)c1ccc(N2CCn3nc(COc4ccccc4)cc3C2=O)nc1
Problem: Ascending sort, pEC50. I would appreciate it if you listed the labels in the requested order.
Solution: C, D, B, A

###

assayTarget: human mGluR5a receptor (Homo sapiens, UniProt P41594)
Construct: cDNA subcloned into pcDNA3.1(-)
protocol: Cell-based functional Ca2+ mobilization assay (FDSS), potentiation of glutamate EC20 response
experimentalContext: maximum % effect in concentration-response curve, as percent of response to maximally effective glutamate
measure: Emax (%)

Previously resolved entries follow.
COc1cc(N2CCn3nc(COc4ccccc4)cc3C2=O)nnc1Cl ... 50
CN(C)c1ccc(N2CCn3nc(COc4ccccc4)cc3C2=O)nc1 ... 67
COc1cc(N2CCn3nc(COc4ccccn4)cc3C2=O)ccc1F ... 69
C[C@@H]1Cn2nc(COc3ccccc3)cc2C(=O)N1CC1CC1 ... 66
O=C1c2cc(COc3cncc(F)c3)nn2CCN1c1ccc(F)cc1 ... 68
COc1nc(N2CCn3nc(COc4ccccc4)cc3C2=O)cnc1C ... 69
COc1cc(N2C(=O)c3cc(COc4ccccc4)nn3C[C@H]2C)ccc1F ... 62
O=C1c2cc(COc3ccccc3)nn2CCN1c1ccccc1F ... 82

A = COc1cnc(N2CCn3nc(COc4ccccc4)cc3C2=O)nc1
B = COc1ccnc(OCc2cc3n(n2)CCN(c2ccc(F)cc2)C3=O)c1
Problem: Between A and B , whose recorded Emax is greater? Reply briefly: the label of your chosen item.
Solution: A
(A: 61%, B: 40%)

###

assayTarget: human mGluR5a receptor (Homo sapiens, UniProt P41594)
Construct: cDNA subcloned into pcDNA3.1(-)
protocol: Cell-based functional Ca2+ mobilization assay (FDSS), potentiation of glutamate EC20 response
experimentalContext: maximum % effect in concentration-response curve, as percent of response to maximally effective glutamate
measure: Emax (%)

Record excerpt, results attached:
O=C1c2nc(COc3ccccc3)nn2CCN1c1ccc(F)cc1 ... 73
O=C1c2cc(COc3ccccc3)nn2CCN1c1ccc(F)cc1 ... 82
CC1Cn2nc(COc3ccc(F)cc3)cc2C(=O)N1c1ccc(F)cc1 (centres unmarked) ... 74
N#Cc1cccc(OCc2cc3n(n2)CCN(CC2CC2)C3=O)c1 ... 28
Cc1[nH]ncc1N1CCn2nc(COc3ccccc3)cc2C1=O ... 44
COc1ccc(N2CCn3nc(COc4ccccc4)cc3C2=O)nn1 ... 75
O=C1c2cc(COc3ccccc3)nn2CC(CF)N1c1ccc(F)cc1 (centres unmarked) [Example 266] ... 65
Cc1cccc(N2CCn3nc(COc4ccccc4)cc3C2=O)c1C ... 69
O=C1c2cc(COc3ccccc3)nn2CCN1c1ccc2nsnc2c1 ... 68
O=C1c2cc(COc3ccccc3)nn2CCN1c1cccc(C2CCNCC2)n1 ... 36

1 = Cc1cccc(OCc2cc3n(n2)CCN(CC2CC2)C3=O)c1
2 = CC1Cn2nc(COc3ccccc3)cc2C(=O)N1 (centres unmarked)
3 = CC1CN(c2ccc(F)cc2)C(=O)c2cc(COc3ccc(F)cc3)nn21 (single isomer, unassigned)
Problem: Sort the compounds on Emax (%); start with the lowest figure. Enter labels, ranked according to the request.
Solution: 1, 2, 3
(1: 30%, 2: 46%, 3: 67%)

###

assayTarget: human mGluR5a receptor (Homo sapiens, UniProt P41594)
Construct: cDNA subcloned into pcDNA3.1(-)
protocol: Cell-based functional Ca2+ mobilization assay (FDSS), potentiation of glutamate EC20 response
experimentalContext: HEK cells transfected with human mGluR5 (H10H or H12H); in presence of EC20 glutamate
measure: pEC50

Cc1ccc(N2CCn3nc(COc4ccc(F)cc4)cc3C2=O)cc1 [Example 222] ... 7.11
COc1nc(N2CCn3nc(COc4ccccc4)cc3C2=O)ncc1Cl [Example 295] ... 7.56
O=C1c2cc(COc3ccccc3)nn2CC(CF)N1c1ccc(F)cc1 (stereo not shown) [Example 266] ... 6.94
Cc1ccc2ccc(N3CCn4nc(COc5ccccc5)cc4C3=O)cc2n1 [Example 369] ... 6.64
Cc1cc(N2CCn3nc(COc4ccccn4)cc3C2=O)ccc1F [Example 203] ... 6.78
O=C1c2cc(COc3ccccc3)nn2CCN1c1ccc2nonc2c1 [Example 375] ... 7.14
COc1nccnc1N1CCn2nc(COc3ccccc3)cc2C1=O [Example 103] ... 7.03
CN(C)c1cccc(N2CCn3nc(COc4ccccn4)cc3C2=O)n1 [Example 313] ... 6.75
O=C1c2cc(COc3ccccn3)nn2CCN1c1ccc(F)cn1 [Example 172] ... 5.99
COc1nc(C)cc(N2CCn3nc(COc4ccccc4)cc3C2=O)n1 [Example 98] ... 6.13
O=C1c2cc(COc3ccccc3)nn2C(CF)CN1c1ccc(F)cc1 (racemic) [Example 264] ... 6.95
Cc1cccc(OCc2cc3n(n2)CCN(CC2CC2)C3=O)c1 [Example 168] ... 5.18
Cc1nc2cc(N3CC(C)n4nc(COc5ccccc5)cc4C3=O)ccc2s1 (single isomer, unassigned) [Example 376] ... 7.12
Nc1cccc(N2CCn3nc(COc4ccccc4)cc3C2=O)n1 [Example 285] ... 6.13
O=C1c2cc(COc3cccc(F)c3)nn2CCN1c1ccc(F)cc1 [Example 188] ... 6.83
Cc1cccc(OCc2cc3n(n2)CCN(c2ccc(F)cn2)C3=O)c1 [Example 177] ... 6.42
CN(C)c1ccc(F)c(N2CCn3nc(COc4ccccc4)cc3C2=O)n1 [Example 283] ... 7.39
